biological target: DAPK3 (human) (UniProt O43293); assay: KINOMEscan competition binding; settings: compound 10.0 µM
Sequence (O43293 whole entry, looked up): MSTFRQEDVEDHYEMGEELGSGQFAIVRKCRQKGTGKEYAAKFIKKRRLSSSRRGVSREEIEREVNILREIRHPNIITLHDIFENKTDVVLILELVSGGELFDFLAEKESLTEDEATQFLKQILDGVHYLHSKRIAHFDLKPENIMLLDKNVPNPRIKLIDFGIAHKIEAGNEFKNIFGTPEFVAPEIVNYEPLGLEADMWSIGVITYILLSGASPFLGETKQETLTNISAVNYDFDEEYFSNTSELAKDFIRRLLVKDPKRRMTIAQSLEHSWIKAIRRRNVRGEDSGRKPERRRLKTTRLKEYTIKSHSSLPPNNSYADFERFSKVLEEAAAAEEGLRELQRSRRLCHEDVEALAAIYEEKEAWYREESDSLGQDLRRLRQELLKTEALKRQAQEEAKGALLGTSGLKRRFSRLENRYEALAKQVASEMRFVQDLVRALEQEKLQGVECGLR
endpoint.name: kinase still bound, per cent of control

1. CC1=C(C(=O)Nc2cc3cn[nH]c3cc2F)C(c2ccc(C(F)(F)F)cc2)CC(=O)N1 (stereo not given) = 77%

Give one value of kinase still bound, per cent of control per listed compound.
1. CCN(CCO)CCCOc1ccc2c(Nc3cc(CC(=O)Nc4cccc(F)c4)[nH]n3)ncnc2c1
2. COc1cc2c(Nc3ccc(NC(=O)c4ccccc4)cc3)ncnc2cc1OCCCN1CCOCC1
3. CCN1CCN(Cc2ccc(NC(=O)c3ccc(C)c(/C=C/c4cnc5[nH]ccc5c4OC)c3)cc2C(F)(F)F)CC1
4. CNC(=O)Nc1ccc(-c2nc(N3CC4CCC(C3)O4)c3cnn(C4CCC5(CC4)OCCO5)c3n2)cc1

82%
100%
99%
100%

====

molecular target: UniProtKB Q86Z02; test: KINOMEscan competition binding; conditions: compound 10.0 µM
Sequence (Q86Z02 whole entry, looked up): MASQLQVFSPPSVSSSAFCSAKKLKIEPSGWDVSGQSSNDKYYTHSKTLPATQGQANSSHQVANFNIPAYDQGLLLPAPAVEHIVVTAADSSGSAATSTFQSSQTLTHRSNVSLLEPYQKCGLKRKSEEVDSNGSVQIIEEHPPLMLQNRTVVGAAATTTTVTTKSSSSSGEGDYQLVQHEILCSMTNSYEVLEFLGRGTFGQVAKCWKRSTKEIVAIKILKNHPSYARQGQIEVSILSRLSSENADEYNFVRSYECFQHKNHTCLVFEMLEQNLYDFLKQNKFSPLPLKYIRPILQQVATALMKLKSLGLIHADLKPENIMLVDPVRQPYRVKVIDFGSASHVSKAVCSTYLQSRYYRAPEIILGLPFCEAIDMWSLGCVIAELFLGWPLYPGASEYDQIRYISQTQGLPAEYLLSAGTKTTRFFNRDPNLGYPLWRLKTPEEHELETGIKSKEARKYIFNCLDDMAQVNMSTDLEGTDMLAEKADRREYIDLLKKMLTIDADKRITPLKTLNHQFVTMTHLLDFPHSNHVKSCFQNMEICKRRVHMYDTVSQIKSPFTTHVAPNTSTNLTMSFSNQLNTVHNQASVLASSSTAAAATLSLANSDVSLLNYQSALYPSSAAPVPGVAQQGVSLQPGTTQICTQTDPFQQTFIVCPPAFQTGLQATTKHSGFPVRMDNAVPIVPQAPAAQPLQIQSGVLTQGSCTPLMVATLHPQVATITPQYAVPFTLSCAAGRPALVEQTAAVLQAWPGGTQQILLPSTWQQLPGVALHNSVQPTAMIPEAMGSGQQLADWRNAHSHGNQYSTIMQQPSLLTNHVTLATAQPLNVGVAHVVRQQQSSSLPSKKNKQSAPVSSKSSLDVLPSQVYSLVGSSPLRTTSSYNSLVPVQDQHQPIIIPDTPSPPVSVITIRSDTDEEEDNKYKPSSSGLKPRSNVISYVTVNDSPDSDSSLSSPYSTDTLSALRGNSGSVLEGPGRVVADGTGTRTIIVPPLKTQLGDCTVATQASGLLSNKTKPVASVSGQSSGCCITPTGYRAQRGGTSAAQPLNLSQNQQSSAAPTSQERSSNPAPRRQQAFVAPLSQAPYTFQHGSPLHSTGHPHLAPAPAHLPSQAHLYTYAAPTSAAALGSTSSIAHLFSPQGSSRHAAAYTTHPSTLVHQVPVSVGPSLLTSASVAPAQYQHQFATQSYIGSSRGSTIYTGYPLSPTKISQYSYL
endpoint.name: kinase still bound, per cent of control (%)
Give bare numbers, in %.

These recorded examples may help you get a feel for the data.
1. CC1=C(C(=O)Nc2cc3cn[nH]c3cc2F)C(c2ccc(C(F)(F)F)cc2)CC(=O)N1 (stereo not given) = 75
2. C=CC(=O)Nc1ccc(C(=O)c2sc(Nc3ccc(N4CCN(C)CC4)cc3OC)nc2N)cc1 = 15
3. CCN1CCN(Cc2ccc(NC(=O)c3ccc(C)c(/C=C/c4cnc5[nH]ccc5c4OC)c3)cc2C(F)(F)F)CC1 = 74
4. CCc1nc(-c2cccc(C)c2)c(-c2ccnc(NC(=O)c3ccccc3)c2)s1 = 94

The compound `CCCS(=O)(=O)Nc1ccc(F)c(C(=O)c2c[nH]c3ncc(Cl)cc23)c1F` showed kinase still bound, per cent of control equal to 36

====

biological target: MAPK10 (human) (UniProt P53779); assay: KINOMEscan competition binding; conditions: compound 10.0 µM
Sequence (P53779 whole entry, looked up): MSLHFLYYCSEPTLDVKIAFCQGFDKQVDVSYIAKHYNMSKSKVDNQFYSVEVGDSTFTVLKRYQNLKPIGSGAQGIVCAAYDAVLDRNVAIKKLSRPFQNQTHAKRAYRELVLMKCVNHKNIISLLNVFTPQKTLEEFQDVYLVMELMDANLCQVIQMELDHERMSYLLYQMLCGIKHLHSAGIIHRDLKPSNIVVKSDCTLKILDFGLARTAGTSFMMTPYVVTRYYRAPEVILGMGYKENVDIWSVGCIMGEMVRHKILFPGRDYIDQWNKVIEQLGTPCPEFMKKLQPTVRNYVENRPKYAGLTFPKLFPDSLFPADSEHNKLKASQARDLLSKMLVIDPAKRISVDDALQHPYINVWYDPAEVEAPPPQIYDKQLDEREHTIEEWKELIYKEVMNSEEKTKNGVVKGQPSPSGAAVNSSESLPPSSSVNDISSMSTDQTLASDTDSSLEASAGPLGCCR
Answer each item with its documented kinase still bound, per cent of control.
Give bare numbers, in %.

These recorded examples may help you get a feel for the data.
1) CCN1CCN(Cc2ccc(NC(=O)c3ccc(C)c(/C=C/c4cnc5[nH]ccc5c4OC)c3)cc2C(F)(F)F)CC1 = 15
2) CC1=C(C(=O)Nc2cc3cn[nH]c3cc2F)C(c2ccc(C(F)(F)F)cc2)CC(=O)N1 (configuration not stated) = 88
3) COc1cc2ncnc(Nc3cccc(Cl)c3)c2cc1OC = 9.8
4) C=CC(=O)Nc1ccc(C(=O)c2sc(Nc3ccc(N4CCN(C)CC4)cc3OC)nc2N)cc1 = 6.4
5) COc1cc(C)c(Sc2cnc(NC(=O)c3ccc(CNC(C)C(C)C)cc3)s2)cc1C(=O)N1CCN(C(C)=O)CC1 (configuration not stated) = 100
6) CCCS(=O)(=O)Nc1ccc(F)c(C(=O)c2c[nH]c3ncc(Cl)cc23)c1F = 90
7) N#Cc1cc(-c2ccnc(Nc3ccc(-n4cnc(-c5cccnc5)n4)cc3)n2)cc(N2CCOCC2)c1 = 0.15
8) CCOc1cc(N2CCC(O)CC2)ccc1Nc1ncc2c(n1)N(C)c1ccccc1C(=O)N2C = 100

Give one value of kinase still bound, per cent of control per listed compound.
1. COc1cc2c(Nc3ccc(NC(=O)c4ccccc4)cc3)ncnc2cc1OCCCN1CCOCC1
2. O=c1[nH]c2ccccc2n1C1CCN(Cc2ccc(-c3nc4cc5[nH]cnc5cc4nc3-c3ccccc3)cc2)CC1

1: 42; 2: 71

Give one value of kinase still bound, per cent of control per listed compound.
1. CCN(CCO)CCCOc1ccc2c(Nc3cc(CC(=O)Nc4cccc(F)c4)[nH]n3)ncnc2c1
2. CCc1nc(-c2cccc(C)c2)c(-c2ccnc(NC(=O)c3ccccc3)c2)s1
3. CNC(=O)Nc1ccc(-c2nc(N3CC4CCC(C3)O4)c3cnn(C4CCC5(CC4)OCCO5)c3n2)cc1
4. COc1ccc(N(C(=O)Oc2cc(C(=O)Nc3cccc(C(F)(F)F)c3)ccc2C)c2ccnc(Nc3ccc(N4CCN(C)CC4)cc3)n2)c(OC)c1

1: 41; 2: 0; 3: 86; 4: 100

Give one value of kinase still bound, per cent of control per listed compound.
1. Cc1cn(-c2cc(C(=O)Nc3ccc(C)c(NC(=O)c4ccno4)c3)cc(C(F)(F)F)c2)cn1
2. COc1cc(N2CCC(C(N)=O)CC2)ccc1Nc1nc(N)c(Cl)c(Nc2ccccc2S(=O)(=O)C(C)C)n1
3. CC(=O)c1c(C)c2cnc(Nc3ccc(N4CCNCC4)cn3)nc2n(C2CCCC2)c1=O

100
28
0.35
